Record: ΔTm reported on Serine/threonine-protein kinase 25 (Homo sapiens).
Value expressed in °C; do not type the unit.

These recorded examples may help you get a feel for the data.
>  <MOLECULE>
Brc1c(Br)c(Br)c2[nH]nnc2c1Br

>  <EXPERIMENTAL SYSTEM>
Serine/threonine-protein kinase 25 (Homo sapiens)

>  <ΔTm (°C)>
0.7

$$$$
>  <MOLECULE>
C[S+]([O-])c1ccc(CSc2nc(-c3ccc(F)cc3)c(-c3ccncc3)[nH]2)cc1 (centres undefined)

>  <EXPERIMENTAL SYSTEM>
Serine/threonine-protein kinase 25 (Homo sapiens)

>  <ΔTm (°C)>
0.6

$$$$
>  <MOLECULE>
C[C@@H](N)[C@H]1CC[C@H](C(=O)Nc2ccncc2)CC1

>  <EXPERIMENTAL SYSTEM>
Serine/threonine-protein kinase 25 (Homo sapiens)

>  <ΔTm (°C)>
0

$$$$

Please turn your attention to the following entry.
Param readout = ΔTm; param system = Serine/threonine-protein kinase 25 (Homo sapiens); param query = O=c1ccc2ccc(O)c(O)c2o1 ; response: value
-0.5
